These data points were gathered from patent US20170232083A1.

System: PBMC (polyclonal gluten-specific T cells) of paediatric and adult CD patients
Assay: IFN-γ ELISpot of PBMC after 3 day oral wheat challenge (SFU, % of maximal peptide response, dominance scores, EC50; Examples 5-6)
Type: cell-based, human
Details: subject two
quantity-kind: Significant response as a percentage of maximal peptide SFU

biosequence | value-observed
QEFPQPEQPFPQQ | ′′′ (41-70% = ′′′)
LPFPQPEQPFVVV | ′′ (21-40% = ′′)
QPFPQPEQPFPQS | ′′′ (41-70% = ′′′)
QPFPQPEQPFRQQ | ′′ (21-40% = ′′)
QPFPQPEQPFSWQ | ′′ (21-40% = ′′)
QPFPQPEQPTPIQ | ′′ (21-40% = ′′)
QPFPQPEQPIPQQ | ′′ (21-40% = ′′)
QPFPQPEQPIPYQ | ′′′ (41-70% = ′′′)
QPFPQPEQPFPWQP | + (>70% = +)
QPFPQPEQPFPLQ | + (>70% = +)

###

System: PBMC (polyclonal gluten-specific T cells) of paediatric and adult CD patients
Experiment: IFN-γ ELISpot of PBMC after 3 day oral wheat challenge (SFU, % of maximal peptide response, dominance scores, EC50; Examples 5-6)
Type: cell-based, human
Settings: subject D, 11-17yrs, following wheat challenge
Note to self: use fulfilled only for Cross-reactive T cell response readings below 20 SFU; a reading exactly at 20 SFU still gets not fulfilled.

biosequence | class
NPLQPEQPFPLQPQPP | fulfilled
PEQPQPFPEQPVPQQP | fulfilled
PEQPFQPEQPFPQQ | fulfilled
QEFPQPEQPFPQQ | fulfilled
QPFPQPEQPFRQQ | fulfilled
QPFPQPEQPTPIQ | fulfilled
QPFPQPEQPFPWQP | not fulfilled
QPFPQPEQPFSWQ | fulfilled
QPFPQPEQELPLQ | fulfilled
PEQPFPEQPQPYPQQP | fulfilled
QPFPQPEQPIPQQ | not fulfilled
QPFPQPEQPIPYQ | not fulfilled
QPEQPFPLQPEQPVP | fulfilled
FPQTEQPEQPFPQP | fulfilled
QPFPQPEQQLPLQ | fulfilled
QPFPQPEQPFPLQ | fulfilled
QPFPQPEQPFPQS | fulfilled
PFPLQPEQPVPEQPQ | fulfilled
QLFPLPEQPFPQP | fulfilled

###

Tested on: PBMC (polyclonal gluten-specific T cells) of paediatric and adult CD patients
Assay: IFN-γ ELISpot of PBMC after 3 day oral wheat challenge (SFU, % of maximal peptide response, dominance scores, EC50; Examples 5-6)
Type: cell-based, human
Details: subject V (3-5yrs/6-10yrs part), following wheat challenge
Categories are assigned from the measured Cross-reactive T cell response using these intervals: Low: < 6 SFU; Mid: ≥ 6 SFU and < 20 SFU; High: ≥ 20 SFU

biosequence | class
PEQPFPEQPQPYPQQP | Low
QPFPQPEQPFPWQP | High
QPEQPFPLQPEQPVP | Low
QPFPQPEQPFSWQ | High
QPFPQPEQPFPLQ | High
QEFPQPEQPFPQQ | Mid
PFPLQPEQPVPEQPQ | Mid
PEQPFQPEQPFPQQ | Mid
QPFPQPEQPIPYQ | High
QPFPQPEQQLPLQ | Low
QLFPLPEQPFPQP | Low
LPFPQPEQPFVVV | Mid
QPFPQPEQELPLQ | Mid
QPFPQPEQPFPQS | High
QPFPQPEQPIPQQ | Mid
QPFPQPEQPTPIQ | Low
PEQPQPFPEQPVPQQP | Low

###

Tested on: PBMC (polyclonal gluten-specific T cells) of paediatric and adult CD patients
Assay: IFN-γ ELISpot of PBMC after 3 day oral wheat challenge (SFU, % of maximal peptide response, dominance scores, EC50; Examples 5-6)
Format: cell-based, human
Settings: patient Q, 11-17 yrs; after oral wheat challenge; cut-off 10 SFU
quantity-kind: IFN-γ ELISpot response

biosequence | value-observed
PFPQQPQQPFPQP | 9 SFU
FLQPEQPFPEQPEQPYPEQPEQPFPQ | 18 SFU
PIPQQPQQPFPLQ | 13 SFU
YEVIRSLVLRTLPN | 2 SFU
LPYPQPELPYPQP [Peptide W01] | 78 SFU
GIIQPQQPAQL | 0 SFU
QFIQPEQPFPQQ | 25 SFU
PQQPQQSFPQQQQPA | 1 SFU
QPFPQPEQPFPWQP | 63 SFU
LQPRPQPELPYPQP | 97 SFU
LQPFPQPELPYSQP | 29 SFU
PFPEQPEQPYPQQ | 19 SFU
FPQPEQEFPQPQQ | 27 SFU
PEQPFPEQPEQPF | 11 SFU
LQPFPQPELPFPQP [Peptide W06] | 65 SFU
QPFPQPQQPFSQQ | 28 SFU
QPFPQPQQPIPVQ [Peptide W04] | 37 SFU
LPYPQPQLPYPQP | 53 SFU
PEQTFPEQPQLPF | 2 SFU
GLERPWQEQPLPPQ | 22 SFU
PFPEQPEQPFPQP | 35 SFU
PFPLQPEQPFPQP | 43 SFU
QPFPQPEQPFPWQ [Peptide W03, contains DQ2.5-glia-w1 and w2] | 54 SFU
QPFPQPEQPIPVQ | 51 SFU
FPQPQQQFPQPQQ | 10 SFU
LQPFPQPQLPYPQP | 38 SFU
GQSGYYPTSPQQS | 5 SFU
TIPEQPEQPFPLQ | 8 SFU
LQPFPQPELPYPQPQ | 67.5 SFU

###

System: PBMC (polyclonal gluten-specific T cells) of paediatric and adult CD patients
Assay: IFN-γ ELISpot of PBMC after 3 day oral wheat challenge (SFU, % of maximal peptide response, dominance scores, EC50; Examples 5-6)
Format: cell-based, human
Settings: subject T, 11-17yrs, following wheat challenge
Lab note: anything with Cross-reactive T cell response at or over 40 SFU counts as criterion met; the rest go in criterion not met.

biosequence | class
QPFPQPEQPIPQQ | criterion met
QLFPLPEQPFPQP | criterion not met
QPFPQPEQQLPLQ | criterion not met
QPFPQPEQPFPWQP | criterion met
QPFPQPEQPFPLQ | criterion met
PEQPQPFPEQPVPQQP | criterion not met
FPQTEQPEQPFPQP | criterion not met
PEQPFPEQPQPYPQQP | criterion not met
QEFPQPEQPFPQQ | criterion met
QPFPQPEQPFPQS | criterion met
LPFPQPEQPFVVV | criterion met
QPFPQPEQPTPIQ | criterion met
QPFPQPEQPFRQQ | criterion met
QPFPQPEQPIPYQ | criterion met
QPEQPFPLQPEQPVP | criterion not met
PEQPFQPEQPFPQQ | criterion not met
QPFPQPEQELPLQ | criterion not met
PFPLQPEQPVPEQPQ | criterion not met
NPLQPEQPFPLQPQPP | criterion not met

###

Tested on: PBMC (polyclonal gluten-specific T cells) of paediatric and adult CD patients
Assay: IFN-γ ELISpot of PBMC after 3 day oral wheat challenge (SFU, % of maximal peptide response, dominance scores, EC50; Examples 5-6)
Assay type: cell-based, human
Details: patient D; max peptide 30.5 SFU
quantity-kind: Significant response as percentage of maximal peptide SFU

biosequence | system-tested | value-observed
LQPFPQPQLPYPQP | PBMC (polyclonal gluten-specific T cells) of paediatric and adult CD patients | ′′ (21-40% = ′′)
LQPFPQPELPFPQP [Peptide W06] | PBMC (polyclonal gluten-specific T cells) of paediatric and adult CD patients | ′′′ (41-70% = ′′′)
PFPEQPEQPFPQP | PBMC (polyclonal gluten-specific T cells) of paediatric and adult CD patients | ′′ (21-40% = ′′)
QPFPQPEQPFPWQP | PBMC (polyclonal gluten-specific T cells) of paediatric and adult CD patients | + (>70% = +)
LQPFPQPELPYPQPQ | PBMC (polyclonal gluten-specific T cells) of paediatric and adult CD patients | + (>70% = +)
QPFPQPQQPIPVQ [Peptide W04] | PBMC (polyclonal gluten-specific T cells) of paediatric and adult CD patients | ′′ (21-40% = ′′)
QPFPQPEQPFPWQ [Peptide W03, contains DQ2.5-glia-w1 and w2] | PBMC (polyclonal gluten-specific T cells) of paediatric and adult CD patients | ′′′ (41-70% = ′′′)
LPYPQPELPYPQP [Peptide W01] | PBMC (polyclonal gluten-specific T cells) of paediatric and adult CD patients | ′′ (21-40% = ′′)
PFPLQPEQPFPQP | PBMC (polyclonal gluten-specific T cells) of paediatric and adult CD patients | ′′′ (41-70% = ′′′)
QPFPQPEQPIPVQ | PBMC (polyclonal gluten-specific T cells) of paediatric and adult CD patients | ′′′ (41-70% = ′′′)
LQPRPQPELPYPQP | PBMC (polyclonal gluten-specific T cells) of paediatric and adult CD patients | ′′′ (41-70% = ′′′)
